Molecular target: human Neurokinin, NK2 Receptor, TACR2 (gene 6865)
Assay: NVS_GPCR_hNK2: NovaScreen (NVS) G Protein-Coupled Receptor Assay for human Neurokinin, NK2 Receptor (AID 2283278);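 also: actives reduce bound radioligand signal relative to DMSO baseline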
Results filed as inconclusive are left out. The source made the active and inactive calls. The calls were made as follows: active = hit-call score of the fitted dose curve at least 0.9, where 1 is the maximum; inconclusive = response in the unintended direction; inactive = score below 0.9.
Classes used: True (active), False (inactive)

{"columns": ["compound", "class"],
 "data": [
  ["CN(C)C(=S)S", "True"],
  ["CCCCCCCCCCCCc1cccc(S(=O)(=O)O)c1", "False"],
  ["O=c1oc2ccccc2c(O)c1C(CC(O)c1ccc(-c2ccc(Br)cc2)cc1)c1ccccc1 (configuration not stated)", "True"],
  ["[Cl][Sn]([c]1ccccc1)([c]1ccccc1)[c]1ccccc1", "True"],
  ["CCN(N=O)C(N)=O", "False"],
  ["OC(Cc1ccccc1Cl)(Cn1[nH]cnc1=S)C1(Cl)CC1 (configuration not stated)", "True"],
  ["CCOC(=O)CCN(SN(C)C(=O)Oc1cccc2c1OC(C)(C)C2)C(C)C", "False"]
]}

Provenance of the data: PubChem BioAssay (EPA / NIEHS)
